target: NEK7 (Homo sapiens (Human), UniProt Q8TDX7+Q96SW2); assay: NEK7 NanoBiT degradation assay in Cal51 NEK7 NanoBiT cell line; assay type: cell-based; settings: CAL-51; Cal51 NEK7 NanoBiT cells, 24 hours; read-out: NEK7 NanoBiT Dmax
Sequence (Q8TDX7 whole entry): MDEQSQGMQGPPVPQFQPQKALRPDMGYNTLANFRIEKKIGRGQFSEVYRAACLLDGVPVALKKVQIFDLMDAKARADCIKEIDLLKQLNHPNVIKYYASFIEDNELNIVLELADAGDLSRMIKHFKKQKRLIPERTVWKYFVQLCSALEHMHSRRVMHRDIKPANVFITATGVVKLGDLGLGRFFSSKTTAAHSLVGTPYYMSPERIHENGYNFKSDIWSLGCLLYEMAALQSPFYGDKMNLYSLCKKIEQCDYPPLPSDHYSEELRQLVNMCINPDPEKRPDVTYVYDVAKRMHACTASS
Sequence (Q96SW2 whole entry): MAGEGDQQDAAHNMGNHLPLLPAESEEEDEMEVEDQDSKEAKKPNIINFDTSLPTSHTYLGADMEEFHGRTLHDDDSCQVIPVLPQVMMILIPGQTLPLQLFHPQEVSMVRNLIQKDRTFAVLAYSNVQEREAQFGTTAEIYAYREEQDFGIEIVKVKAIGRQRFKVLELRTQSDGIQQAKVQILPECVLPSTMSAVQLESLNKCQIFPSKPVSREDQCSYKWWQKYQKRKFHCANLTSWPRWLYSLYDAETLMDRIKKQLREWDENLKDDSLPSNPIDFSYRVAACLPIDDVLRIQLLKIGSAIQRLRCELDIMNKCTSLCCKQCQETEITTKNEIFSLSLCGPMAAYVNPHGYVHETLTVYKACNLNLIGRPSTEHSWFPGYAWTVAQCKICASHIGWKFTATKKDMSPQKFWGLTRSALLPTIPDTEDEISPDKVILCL
Sequence (Q16531 2-1140 partner): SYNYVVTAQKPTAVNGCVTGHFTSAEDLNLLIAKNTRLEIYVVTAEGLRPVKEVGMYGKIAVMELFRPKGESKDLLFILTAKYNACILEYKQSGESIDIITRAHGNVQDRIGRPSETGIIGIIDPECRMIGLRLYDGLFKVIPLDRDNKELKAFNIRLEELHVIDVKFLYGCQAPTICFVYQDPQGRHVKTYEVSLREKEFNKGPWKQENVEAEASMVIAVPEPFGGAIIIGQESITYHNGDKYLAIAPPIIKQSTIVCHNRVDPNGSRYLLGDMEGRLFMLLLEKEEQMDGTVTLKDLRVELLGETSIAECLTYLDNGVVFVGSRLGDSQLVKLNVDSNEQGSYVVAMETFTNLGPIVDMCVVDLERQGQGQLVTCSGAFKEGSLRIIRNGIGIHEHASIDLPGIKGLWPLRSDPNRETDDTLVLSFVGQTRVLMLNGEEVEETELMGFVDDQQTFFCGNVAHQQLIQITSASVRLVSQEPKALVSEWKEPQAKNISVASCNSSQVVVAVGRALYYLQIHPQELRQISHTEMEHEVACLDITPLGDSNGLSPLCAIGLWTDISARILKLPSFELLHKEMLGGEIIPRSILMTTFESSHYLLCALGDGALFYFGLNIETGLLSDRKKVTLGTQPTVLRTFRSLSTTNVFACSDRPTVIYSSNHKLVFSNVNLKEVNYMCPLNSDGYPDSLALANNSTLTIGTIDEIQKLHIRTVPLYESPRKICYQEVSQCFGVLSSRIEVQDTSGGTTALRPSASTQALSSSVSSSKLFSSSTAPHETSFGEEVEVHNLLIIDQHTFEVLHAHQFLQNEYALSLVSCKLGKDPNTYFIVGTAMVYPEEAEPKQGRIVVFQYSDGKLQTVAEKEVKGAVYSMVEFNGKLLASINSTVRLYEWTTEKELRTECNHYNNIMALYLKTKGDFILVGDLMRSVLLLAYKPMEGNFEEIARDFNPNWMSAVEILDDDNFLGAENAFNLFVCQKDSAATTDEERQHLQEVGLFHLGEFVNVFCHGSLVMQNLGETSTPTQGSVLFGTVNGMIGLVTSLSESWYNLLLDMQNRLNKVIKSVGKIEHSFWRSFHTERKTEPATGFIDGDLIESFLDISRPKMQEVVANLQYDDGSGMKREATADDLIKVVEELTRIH
quantityName: Dmax (%)

• Cc1ccc(C(C)(C)C(=O)NCc2cc(Cl)c(C3CCC(=O)NC3=O)c(Cl)c2)nc1 (centres unmarked) [Compound 89] = 92
• CC(C)(C(=O)NCc1cc(Cl)c(C2CCC(=O)NC2=O)c(Cl)c1)c1ncncc1F (centres unmarked) [Compound 8] = 93
• CC(C)(C(=O)NCc1cc(Cl)c(C2CCC(=O)NC2=O)c(Cl)c1)c1cc(F)[nH]c(=O)c1 (centres unmarked) [Compound 59] = 87
• CC(C)(C(=O)NCc1cc(Cl)c(C2CCC(=O)NC2=O)c(Cl)c1)c1ccc(S(N)(=O)=O)cc1F (centres unmarked) [Compound 43] = 97
• CC(C)(C(=O)NCc1cc(Cl)c(C2CCC(=O)NC2=O)c(Cl)c1)c1ncccn1 (centres unmarked) [Compound 34] = 78
• CC(C)(C(=O)NCc1cc(Cl)c(C2CCC(=O)NC2=O)c(Cl)c1)c1ncoc1C(F)(F)F (centres unmarked) [Compound 199] = 67
• CC(C)(C(=O)NCc1cc(F)c(C2CCC(=O)NC2=O)c(Cl)c1)c1ccc(C(F)F)nn1 (centres unmarked) [Compound 280] = 60
• CC(C)(C(=O)NCc1cc(Cl)c(C2CCC(=O)NC2=O)c(Cl)c1)c1ccc2ncoc2c1 (centres unmarked) [Compound 10] = 97

----------
biological target: CRBN-DDB1 (Homo sapiens (Human), UniProt Q96SW2); experiment: Compound binding to CRBN by HTRF assay
Sequence (Q16531 whole entry partner, one chain of several): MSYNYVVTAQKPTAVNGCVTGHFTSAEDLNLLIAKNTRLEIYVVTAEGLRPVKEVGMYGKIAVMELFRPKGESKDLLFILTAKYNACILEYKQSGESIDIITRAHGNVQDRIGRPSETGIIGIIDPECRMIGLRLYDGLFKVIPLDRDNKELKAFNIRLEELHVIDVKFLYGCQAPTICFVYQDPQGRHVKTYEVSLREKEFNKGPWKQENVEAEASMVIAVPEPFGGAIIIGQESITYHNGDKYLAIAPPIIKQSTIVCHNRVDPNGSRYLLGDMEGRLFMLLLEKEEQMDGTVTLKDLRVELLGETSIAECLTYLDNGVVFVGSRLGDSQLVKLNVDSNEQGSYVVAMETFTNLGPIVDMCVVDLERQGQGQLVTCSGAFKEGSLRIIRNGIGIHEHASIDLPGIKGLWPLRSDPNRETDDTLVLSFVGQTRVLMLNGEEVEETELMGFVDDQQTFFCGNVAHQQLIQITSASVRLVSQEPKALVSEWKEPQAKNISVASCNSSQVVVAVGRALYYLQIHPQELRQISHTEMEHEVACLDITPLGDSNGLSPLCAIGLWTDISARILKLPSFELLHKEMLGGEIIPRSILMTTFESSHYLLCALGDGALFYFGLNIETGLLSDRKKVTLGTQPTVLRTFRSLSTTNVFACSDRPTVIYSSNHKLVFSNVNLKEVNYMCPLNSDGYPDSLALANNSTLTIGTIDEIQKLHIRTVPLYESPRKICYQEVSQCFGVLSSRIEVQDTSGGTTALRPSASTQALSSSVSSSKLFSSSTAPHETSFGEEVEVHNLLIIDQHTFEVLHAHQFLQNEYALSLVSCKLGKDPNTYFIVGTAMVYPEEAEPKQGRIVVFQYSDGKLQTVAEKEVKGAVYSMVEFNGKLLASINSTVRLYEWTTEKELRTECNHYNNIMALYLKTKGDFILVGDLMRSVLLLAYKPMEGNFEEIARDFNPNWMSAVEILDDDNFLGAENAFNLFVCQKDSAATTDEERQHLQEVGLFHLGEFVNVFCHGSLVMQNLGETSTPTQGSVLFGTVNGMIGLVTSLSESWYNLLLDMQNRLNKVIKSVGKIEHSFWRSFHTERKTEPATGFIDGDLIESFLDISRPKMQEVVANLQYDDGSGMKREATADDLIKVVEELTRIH
pEC50: −log10 of the molar value.
quantityName: pEC50

* CC(C)(C(=O)NCc1cc(Cl)c(C2CCC(=O)NC2=O)c(Cl)c1)c1cncc(F)c1 (stereo not drawn) [Compound 85] | 7.40
* CC(C)(C(=O)NCc1cc(Cl)c([C@]2(F)CCC(=O)NC2=O)c(Cl)c1)c1ccccc1 (single isomer, unassigned) [Compound 273] | 6.60
* CC1(C(=O)NCc2cc(Cl)c(C3CCC(=O)NC3=O)c(Cl)c2)COc2ccccc2C1 (stereo not drawn) [Compound 38] | 7.40
* CC(F)(F)c1ccc(C(C)(C)C(=O)NCc2cc(F)c(C3CCC(=O)NC3=O)c(Cl)c2)nn1 (stereo not drawn) [Compound 277] | 6.74
* COc1conc1C(C)(C)C(=O)NCc1cc(F)c(C2CCC(=O)NC2=O)c(Cl)c1 (stereo not drawn) [Compound 268] | 6.92
* CC(C)(C(=O)NCc1cc(Cl)c(C2CCC(=O)NC2=O)c(Cl)c1)c1cnco1 (stereo not drawn) [Compound 122] | 6.64
* CC(C)(C(=O)NCc1cc(F)c(C2CCC(=O)NC2=O)c(Cl)c1)c1ccc(OCC(F)F)nc1 (stereo not drawn) [Compound 269] | 7.00
* CC(C)(C(=O)NCc1cc(F)c(C2CCC(=O)NC2=O)c(Cl)c1)c1ccc(OC(F)F)nc1 (stereo not drawn) [Compound 267] | 6.96
* Cc1coc(C(C)(C)C(=O)NCc2cc(F)c(C3CCC(=O)NC3=O)c(Cl)c2)n1 (stereo not drawn) [Compound 254] | 6.92
* CC(C)(C(=O)NCc1cc(Cl)c(C2CCC(=O)NC2=O)c(Cl)c1)c1ncc(C(=O)O)cn1 (stereo not drawn) [Compound 235] | 6.25
* CC(C)(C(=O)NCc1cc(Cl)c(C2CCC(=O)NC2=O)c(Cl)c1)c1ccc(C(F)F)nn1 (stereo not drawn) [Compound 6] | 6.68
* COCc1cnc(C(C)(C)C(=O)NCc2cc(Cl)c(C3CCC(=O)NC3=O)c(Cl)c2)nc1 (stereo not drawn) [Compound 183] | 6.43
* CC(C)(C(=O)NCc1ccc(C2CCC(=O)NC2=O)c(Cl)c1)c1cccc(C#N)c1 (stereo not drawn) [Compound 18] | 6.27
* Cc1ccc(C(C)(C)C(=O)NCc2cc(Cl)c(C3CCC(=O)NC3=O)c(Cl)c2)nn1 (stereo not drawn) [Compound 12] | 6.77
* CC(C)(C(=O)NCc1cc(Cl)c(C2CCC(=O)NC2=O)c(Cl)c1)c1cc(F)[nH]c(=O)c1 (stereo not drawn) [Compound 59] | 6.85
